Biological target: Angiotensin-converting enzyme (Homo sapiens) (UniProt P12821)
Sequence (P12821 whole entry): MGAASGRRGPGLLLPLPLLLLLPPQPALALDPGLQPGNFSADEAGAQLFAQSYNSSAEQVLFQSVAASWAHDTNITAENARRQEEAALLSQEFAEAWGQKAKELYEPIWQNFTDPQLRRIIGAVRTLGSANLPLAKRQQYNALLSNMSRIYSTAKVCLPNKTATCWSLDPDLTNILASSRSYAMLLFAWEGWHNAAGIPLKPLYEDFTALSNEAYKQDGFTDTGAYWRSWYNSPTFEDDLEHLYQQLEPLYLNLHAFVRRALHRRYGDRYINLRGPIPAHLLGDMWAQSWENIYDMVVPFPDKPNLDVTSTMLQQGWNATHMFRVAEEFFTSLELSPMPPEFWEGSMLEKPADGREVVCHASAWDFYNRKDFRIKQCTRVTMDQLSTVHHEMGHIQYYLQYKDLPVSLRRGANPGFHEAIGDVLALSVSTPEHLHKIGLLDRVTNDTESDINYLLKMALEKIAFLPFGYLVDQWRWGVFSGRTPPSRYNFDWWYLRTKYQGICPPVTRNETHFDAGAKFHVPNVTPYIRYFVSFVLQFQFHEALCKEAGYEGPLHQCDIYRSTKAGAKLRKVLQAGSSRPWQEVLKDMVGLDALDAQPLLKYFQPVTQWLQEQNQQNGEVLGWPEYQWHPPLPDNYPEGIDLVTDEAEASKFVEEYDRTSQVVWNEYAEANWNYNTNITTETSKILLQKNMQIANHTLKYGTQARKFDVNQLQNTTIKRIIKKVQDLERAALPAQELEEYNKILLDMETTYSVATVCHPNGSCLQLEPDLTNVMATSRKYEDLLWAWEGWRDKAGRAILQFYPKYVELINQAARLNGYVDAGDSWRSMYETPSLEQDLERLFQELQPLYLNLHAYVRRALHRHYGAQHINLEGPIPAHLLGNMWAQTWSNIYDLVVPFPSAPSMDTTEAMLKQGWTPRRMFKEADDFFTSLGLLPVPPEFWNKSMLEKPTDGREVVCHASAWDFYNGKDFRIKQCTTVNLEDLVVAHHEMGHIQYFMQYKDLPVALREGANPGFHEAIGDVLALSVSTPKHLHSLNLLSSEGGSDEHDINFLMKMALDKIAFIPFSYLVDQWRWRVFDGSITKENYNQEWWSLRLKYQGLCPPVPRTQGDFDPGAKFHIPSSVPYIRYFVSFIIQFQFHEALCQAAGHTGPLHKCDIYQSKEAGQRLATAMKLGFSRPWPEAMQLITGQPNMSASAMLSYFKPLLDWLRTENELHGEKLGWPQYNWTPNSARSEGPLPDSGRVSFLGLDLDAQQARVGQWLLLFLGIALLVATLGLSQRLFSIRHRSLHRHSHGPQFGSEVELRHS
Assay: Inhibition of recombinant human ACE at 100 uM using Mca-R-P-PG-F-S-A-F-K(Dnp)-OH as substrate measured every 2 mins for 8 mins by fluorescence assay
readout_type: inhibition (%)
Give your result in % as a bare value.

Exercise: Requested field: inhibition. Item: `CC[C@H]1CN2CC[C@]3(C(=O)Nc4ccccc43)[C@@H]2C[C@@H]1/C(=C\OC)C(=O)OC`
Solution: 10

Exercise: Requested field: inhibition. Item: `COc1cc(C=O)ccc1O`
Solution: 41.5

Exercise: Requested field: inhibition. Item: `C=CC(C)(C)c1cc(/C=C/C(=O)c2ccc(O)cc2)c(OC)cc1O`
Solution: 111

Exercise: Requested field: inhibition. Item: `OC[C@H]1O[C@@H](Oc2cc(O)cc(/C=C/c3ccc(O)cc3)c2)[C@H](O)[C@@H](O)[C@@H]1O`
Solution: 8.9

Exercise: Requested field: inhibition. Item: `COc1cc(O)ccc1/C=C/C(=O)c1ccc(O)cc1`
Solution: 72.5

Exercise: Requested field: inhibition. Item: `C[C@@H]1CC[C@H]2[C@@H](C)C(=O)O[C@@H]3O[C@@]4(C)CC[C@@H]1[C@]32OO4`
Solution: 17.1

Exercise: Requested field: inhibition. Item: `COc1ccc(/C=C/c2cc(O)cc(O[C@@H]3O[C@H](CO)[C@@H](O)[C@H](O)[C@H]3O)c2)cc1O`
Solution: 18.2

Exercise: Requested field: inhibition. Item: `O=C(O[C@@H]1Cc2c(O)cc(O)cc2O[C@@H]1c1cc(O)c(O)c(O)c1)c1cc(O)c(O)c(O)c1`
Solution: 82

Exercise: Requested field: inhibition. Item: `C[C@@H]1O[C@@H](Oc2cc(O)c3c(=O)c(O)c(-c4ccc(O)cc4)oc3c2O)[C@H](O)[C@H](O)[C@H]1O`
Solution: 17.2

Exercise: Requested field: inhibition. Item: `C[C@]1(O)C[C@@H](O)[C@]2(O)C=CO[C@@H](O[C@@H]3O[C@H](CO)[C@@H](O)[C@H](O)[C@H]3O)[C@@H]21`
Solution: 14.8
